# System: HFF cells
# METHOD: XTT cytotoxicity assay
# Format: cell-based, human
ASSAY_READOUT: cytotoxicity

Answered cases to consult:
Field request: cytotoxicity | item: O=C1c2cccc3c([N+](=O)[O-])ccc(c23)C(=O)N1Cc1cccnc1
significant cytotoxicity

Which value of cytotoxicity has been reported for Cn1c(=O)cc2c3c(c(N4CCCCC4)ccc31)C(=O)c1ccccc1-2 in the records?
relatively high CC50's

Entry CNC(=S)NN=Cc1ccc(OC)c(Br)c1 : reported cytotoxicity = ?
relatively high CC50's

# cytotoxicity lookup, item CN(C)c1ccc2nc3c(=O)[nH]c(=O)[nH]c3nc2c1
significant cytotoxicity

Which cytotoxicity is reported for this compound? CCN1C=CC(=CC=Cc2ccc3ccccc3[n+]2CC)c2ccccc21
significant cytotoxicity

Returns the measured cytotoxicity for the input compound. Input: O=c1c2cccc3cccc(c32)c2nc3ccccc3n12
relatively high CC50's

I'd like to know its cytotoxicity. The compound in question is COc1ccccc1C=C1N=C(c2ccc(OC)c(OC)c2)N(c2cccc(F)c2)C1=O
significant cytotoxicity

Query: cytotoxicity; subject: CNC(=S)NN=Cc1cc(Br)ccc1O
significant cytotoxicity

Lab note: next compound to report on.
Sample CCn1c2ccccc2c2cc3cc4ccccc4cc3cc21 — what was its cytotoxicity?
significant cytotoxicity

---

# MEASURED_ON: GST-UL44ΔC290 / UL54-derived peptide interaction (Human cytomegalovirus, UniProt P16790)
# Construct: GST-UL44ΔC290 fusion protein, which contains the N-terminal 290 residues of HCMV UL44; made in house; host or cells: E. coli BL21 (DE3)pLysS
# Sequence (P16790 1-290, stated change not applied): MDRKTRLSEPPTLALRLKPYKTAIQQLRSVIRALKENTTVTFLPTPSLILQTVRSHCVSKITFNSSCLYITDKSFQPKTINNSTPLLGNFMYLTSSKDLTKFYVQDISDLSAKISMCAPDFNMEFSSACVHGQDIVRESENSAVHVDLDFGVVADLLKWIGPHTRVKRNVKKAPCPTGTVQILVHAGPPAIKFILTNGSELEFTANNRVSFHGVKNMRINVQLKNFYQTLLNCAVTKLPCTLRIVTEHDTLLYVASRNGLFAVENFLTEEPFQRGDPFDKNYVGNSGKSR
# METHOD: biochemical
# Assay type: binding, HCMV
# TEST_CONTEXT: 2.5 μM GST-UL44ΔC290 and 3 nM labeled peptide; read-out: IC50 for inhibition of FP (UL44-UL54 peptide interaction)
ASSAY_READOUT: IC50 (µM)
The figure you give is taken to be in µM; do not add the unit.

Param readout = IC50; param system = GST-UL44ΔC290 / UL54-derived peptide interaction (Human cytomegalovirus, UniProt P16790); param query = CN(C)c1ccc2nc3c(=O)[nH]c(=O)[nH]c3nc2c1 ; response: value
50

What is its IC50 for GST-UL44ΔC290 / UL54-derived peptide interaction (Human cytomegalovirus, UniProt P16790)? Entry: O=C1CC(=O)c2c1cccc2[N+](=O)[O-]
60

---

# MEASURED_ON: full-length UL54 / UL44 interaction (Human cytomegalovirus)
# Construct: made in house; host or cells: baculovirus expression; proteins provided by H. S. Marsden (Institute of Virology, Glasgow)
# Sequence (P16790 whole entry): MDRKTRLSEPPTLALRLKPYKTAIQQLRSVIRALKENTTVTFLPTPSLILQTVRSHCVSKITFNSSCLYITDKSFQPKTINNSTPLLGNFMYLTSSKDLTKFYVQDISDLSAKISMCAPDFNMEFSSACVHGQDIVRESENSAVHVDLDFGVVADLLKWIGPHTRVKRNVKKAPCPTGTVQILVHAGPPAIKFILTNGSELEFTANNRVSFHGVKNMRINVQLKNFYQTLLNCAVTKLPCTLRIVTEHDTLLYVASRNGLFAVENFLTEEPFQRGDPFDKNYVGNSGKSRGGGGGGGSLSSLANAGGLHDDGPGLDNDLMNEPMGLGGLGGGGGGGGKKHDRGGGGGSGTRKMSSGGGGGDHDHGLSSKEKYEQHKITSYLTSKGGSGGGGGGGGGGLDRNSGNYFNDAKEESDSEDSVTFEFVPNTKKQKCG
# METHOD: UL54-UL44 interaction ELISA
# Type: binding, HCMV
# TEST_CONTEXT: concentrations up to 200 μM
ASSAY_READOUT: inhibition of the UL54-UL44 physical interaction

inhibition of the UL54-UL44 physical interaction for Cn1c(=O)cc2c3c(c(N4CCCCC4)ccc31)C(=O)c1ccccc1-2 ?
potent

Item under review: O=c1c2cccc3cccc(c32)c2nc3ccccc3n12 . Reported inhibition of the UL54-UL44 physical interaction?
potent

# get_value(readout='inhibition of the UL54-UL44 physical interaction', item= Nc1ccc(N)c2c1C(=O)c1c(O)ccc(O)c1C2=O )
potent

---

# METHOD: XTT cytotoxicity assay
# Format: cell-based, human
# TEST_CONTEXT: human
# Protocol: Cytotoxicity assays. […] Cell viability was then determined with an XTT assay (Roche Molecular Biochemicals) according to the manufacturer's protocol by using a Victor plate reader (Wallac). The cytotoxicity of the compounds was measured in an XTT assay. XTT is a compound that is converted to a product that can be measured […], but only by viable cells. […]
ASSAY_READOUT: CC50

CC50 lookup needed for Nc1nc(O)c2ncn(COC(CO)CO)c2n1 [GCV, ganciclovir, reference compound] , thanks.
~200 µM

---

# MEASURED_ON: UL54 plus GST-UL44ΔC290 (Human cytomegalovirus, UniProt P16790)
# Construct: GST-UL44ΔC290 fusion protein, which contains the N-terminal 290 residues of HCMV UL44; made in house; host or cells: UL54: in vitro transcription/translation; GST-UL44ΔC290: E. coli BL21 (DE3)pLysS
# Sequence (P16790 1-290, stated change not applied): as the sequence (P16790 1-290, stated change not applied) above
# METHOD: long-chain DNA synthesis by UL54 in the presence of UL44
# Type: biochemical, HCMV
# TEST_CONTEXT: dose-response
ASSAY_READOUT: inhibition of long-chain DNA synthesis by UL54 and UL44

Previously resolved entries follow.
Find inhibition of long-chain DNA synthesis by UL54 and UL44 (UL54 plus GST-UL44ΔC290 (Human cytomegalovirus, UniProt P16790)) for the entry CNC(=S)NN=Cc1ccc(OC)c(Br)c1 [AL20]
little or no inhibition

Hi! What's the reported inhibition of long-chain DNA synthesis by UL54 and UL44 for O=c1c2cccc3cccc(c32)c2nc3ccccc3n12 [AL12] on UL54 plus GST-UL44ΔC290 (Human cytomegalovirus, UniProt P16790)?
relatively low IC50s

UL54 plus GST-UL44ΔC290 (Human cytomegalovirus, UniProt P16790) / inhibition of long-chain DNA synthesis by UL54 and UL44 / CCOc1cc(C2C(C#N)=C(N)Oc3n[nH]c(-c4ccc(Cl)cc4)c32)cc([N+](=O)[O-])c1O (centres unmarked) [AL3] : value?
little or no inhibition

Form field - read-out: inhibition of long-chain DNA synthesis by UL54 and UL44; system: UL54 plus GST-UL44ΔC290 (Human cytomegalovirus, UniProt P16790); submitted item: Nc1ccc(N)c2c1C(=O)c1c(O)ccc(O)c1C2=O [AL18]
relatively low IC50s

New cases:
# get_value(readout= inhibition of long-chain DNA synthesis by UL54 and UL44, system= UL54 plus GST-UL44ΔC290 (Human cytomegalovirus, UniProt P16790)) for Cn1c(=O)cc2c3c(c(N4CCCCC4)ccc31)C(=O)c1ccccc1-2 [AL5]
relatively low IC50s

// fetch UL54 plus GST-UL44ΔC290 (Human cytomegalovirus, UniProt P16790) inhibition of long-chain DNA synthesis by UL54 and UL44 for CCOc1cc(C2C(C#N)=C(N)Oc3n[nH]c(-c4ccccc4)c32)cc([N+](=O)[O-])c1O (centres unmarked) [AL1]
little or no inhibition

Give UL54 plus GST-UL44ΔC290 (Human cytomegalovirus, UniProt P16790) inhibition of long-chain DNA synthesis by UL54 and UL44 for CCOc1cc(C2C(C#N)=C(N)Oc3n[nH]c(-c4ccc(OC)cc4)c32)cc([N+](=O)[O-])c1O (centres unmarked) [AL2]
little or no inhibition
